STUDY_SYSTEM: Solute carrier organic anion transporter family member 1B1 (Homo sapiens, UniProt Q9Y6L6)
Sequence (Q9Y6L6 whole entry): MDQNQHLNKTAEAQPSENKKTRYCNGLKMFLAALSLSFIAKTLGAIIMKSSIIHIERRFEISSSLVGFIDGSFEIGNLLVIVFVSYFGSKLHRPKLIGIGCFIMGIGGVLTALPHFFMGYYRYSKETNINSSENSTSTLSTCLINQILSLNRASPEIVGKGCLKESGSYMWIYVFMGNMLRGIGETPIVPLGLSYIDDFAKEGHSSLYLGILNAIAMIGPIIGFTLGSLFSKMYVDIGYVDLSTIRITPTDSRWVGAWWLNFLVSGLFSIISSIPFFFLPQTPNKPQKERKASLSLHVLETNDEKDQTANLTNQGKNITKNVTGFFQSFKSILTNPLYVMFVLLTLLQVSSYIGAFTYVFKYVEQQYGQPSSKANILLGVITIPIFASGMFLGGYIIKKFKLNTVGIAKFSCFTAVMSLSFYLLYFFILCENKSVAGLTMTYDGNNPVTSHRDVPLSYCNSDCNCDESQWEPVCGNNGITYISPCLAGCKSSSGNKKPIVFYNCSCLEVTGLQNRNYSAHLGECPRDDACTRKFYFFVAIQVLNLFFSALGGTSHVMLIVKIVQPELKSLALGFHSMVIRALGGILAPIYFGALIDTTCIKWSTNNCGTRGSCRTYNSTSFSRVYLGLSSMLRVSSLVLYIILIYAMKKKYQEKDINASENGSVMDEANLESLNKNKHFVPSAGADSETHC
CONDITIONS_USED: chinese hamster, cho, 10 µM
Task for the reader: assign each of the following molecules its reported residual activity.
Kindly format the answer as number then unit.

Recorded residual activity, per entry:
# MOLECULE, residual activity
measured = [
    ("O=c1ccc2ccc(O)cc2o1", "26.71%"),
    ("CCCCCCNC(=O)n1cc(F)c(=O)[nH]c1=O", "107%"),
    ("CCN(CCCCOC(=O)c1ccc(OC)c(OC)c1)C(C)Cc1ccc(OC)cc1.Cl (centres undefined) [MEBEVERINE HYDROCHLORIDE]", "89.99%"),
]

Asked: Field: residual activity (Solute carrier organic anion transporter family member 1B1 (Homo sapiens, UniProt Q9Y6L6)). Entry: C[C@H](CCC(=O)O)[C@H]1CC[C@H]2[C@@H]3CC[C@@H]4C[C@H](O)CC[C@]4(C)[C@H]3C=C[C@]12C
Given back: 23.69%

###

STUDY_SYSTEM: Solute carrier organic anion transporter family member 1B1 (Homo sapiens)
CONDITIONS_USED: chinese hamster, cho, 10 µM
MEASURED_ATTRIBUTE: residual activity (%)
Give bare numbers, in %.

Recorded residual activity, per entry:
# MOLECULE, STUDY_SYSTEM, residual activity, %
rows = [
    ("CC(=O)O[C@@H]1C[C@H]2C(C)(C)[C@@H](O)CC[C@]2(C)[C@H]2CC[C@]3(C)C(=CC(=O)O[C@H]3c3ccoc3)[C@@]21C", "Solute carrier organic anion transporter family member 1B1 (Homo sapiens)", 31.46),
    ("CC(=O)O[C@@H]1C[C@@H]2C(C)(C)C(=O)C=C[C@@]2(C)[C@@H]2CC[C@@]3(C)C(=CC(=O)O[C@@H]3c3ccoc3)[C@@]12C", "Solute carrier organic anion transporter family member 1B1 (Homo sapiens)", 8.693),
    ("O=[N+]([O-])c1ccc(O)c([N+](=O)[O-])c1 [2,4-DINITROPHENOL]", "Solute carrier organic anion transporter family member 1B1 (Homo sapiens)", 75.05),
    ("CNC(=O)Oc1ccc2c(c1)[C@]1(C)CCN(C)[C@@H]1N2C.CNC(=O)Oc1ccc2c(c1)[C@]1(C)CCN(C)[C@@H]1N2C.O=S(=O)(O)O [PHYSOSTIGMINE SULFATE]", "Solute carrier organic anion transporter family member 1B1 (Homo sapiens)", 101.7),
    ("COc1c(N2C[C@@H]3CCCN[C@@H]3C2)c(F)cc2c(=O)c(C(=O)O)cn(C3CC3)c12.Cl [MOXIFLOXACIN HYDROCHLORIDE]", "Solute carrier organic anion transporter family member 1B1 (Homo sapiens)", 106),
    ("C=C[C@@](C)(O)CCC1C(=C)CCC2[C@@](C)(CO)CCC[C@]12C (stereo partly drawn) [EPI(13)TORULOSOL]", "Solute carrier organic anion transporter family member 1B1 (Homo sapiens)", 109),
    ("COC1=C(OC)C(=O)C(C/C=C(\\C)CC/C=C(\\C)CC/C=C(\\C)CC/C=C(\\C)CC/C=C(\\C)CC/C=C(\\C)CC/C=C(\\C)CC/C=C(\\C)CC/C=C(\\C)CCC=C(C)C)=C(C)C1=O [UBIDECARENONE]", "Solute carrier organic anion transporter family member 1B1 (Homo sapiens)", 118.6),
    ("CC(C)=CCC[C@]1(C)C=Cc2c(O)c3c(c(CC=C(C)C)c2O1)O[C@]12C(C[C@@H]4C[C@H]1C(C)(C)O[C@@]2(C/C=C(/C)C(=O)O)C4O)C3=O (some centres undefined)", "Solute carrier organic anion transporter family member 1B1 (Homo sapiens)", 12.48),
]

Dear colleague, could you send me residual activity for each of the items below? Thanks.
1. Cl.O=c1n(CCCN2CCN(c3cccc(Cl)c3)CC2)nc2ccccn12 [TRAZODONE HYDROCHLORIDE]
2. Nc1ccc(S(=O)(=O)NC(=O)c2ccccc2)cc1 [SULFABENZAMIDE]
3. CC(=O)O[C@H]1C[C@@H](OC(C)=O)C(C)(C)[C@@H]2C[C@@H](OC(C)=O)[C@@]3(C)C4=CC(=O)O[C@@H](c5ccoc5)[C@]4(C)CC[C@@H]3[C@@]12C
4. C[C@H]1CC[C@]2(NC1)O[C@H]1C[C@H]3[C@@H]4CC[C@H]5C[C@@H](O)CC[C@]5(C)[C@H]4CC[C@]3(C)[C@H]1[C@@H]2C.Cl

Given back:
98.06
84.77
107.2
108.8

Dear colleague, could you send me residual activity for each of the items below? Thanks.
1. CC(=O)OCC(=O)[C@@]1(O)[C@H](OC(C)=O)C[C@H]2[C@@H]3CCC4=CC(=O)C=C[C@]4(C)[C@@]3(F)[C@@H](O)C[C@@]21C [TRIAMCINOLONE DIACETATE]
2. CNC1(C)C2CCC(C2)C1(C)C.Cl (centres undefined) [MECAMYLAMINE HYDROCHLORIDE]
3. CC(N)CCCC(C)(C)O.Cl (centres undefined) [HEPTAMINOL HYDROCHLORIDE]
4. CN(C)CC[C@@H](c1ccc(Cl)cc1)c1ccccn1.O=C(O)/C=C\C(=O)O [DEXCHLORPHENIRAMINE MALEATE]
5. CC(C)CCC[C@@H](C)[C@H]1CC[C@H]2[C@@H]3CC[C@@H]4C[C@H](O)CC[C@]4(C)[C@H]3CC[C@]12C [EPICOPROSTEROL]

Given back:
1. 98.08
2. 93.56
3. 95.56
4. 117.7
5. 90.49

Dear colleague, could you send me residual activity for each of the items below? Thanks.
1. CC[C@H]1CN2CC[C@H]1C[C@@H]2[C@@H](O)c1ccnc2ccc(OC)cc12 [HYDROQUINIDINE]
2. CC(C)c1c(O)ccc2c1CC[C@H]1C(C)(C)CCC[C@]21C [TOTAROL]
3. CO[C@@]1(NC(=O)CSCC#N)C(=O)N2C(C(=O)[O-])=C(CSc3nnnn3C)CS[C@@H]21.[Na+] [CEFMETAZOLE SODIUM]
4. Cc1cc(N)c2ccccc2[n+]1CCCCCCCCCC[n+]1c(C)cc(N)c2ccccc21.[Cl-].[Cl-] [DEQUALINIUM CHLORIDE]
5. CC1(C)C2(Cl)C(Cl)C(Cl)C(Cl)(C(Cl)Cl)C1(Cl)C2Cl (centres undefined) [STROBANE]
6. N[C@@H](C(=O)N[C@@H]1C(=O)N2C(C(=O)O)=C(Cl)CS[C@H]12)c1ccccc1 [CEFACLOR ANHYDROUS]

Given back:
1: 77.48; 2: 159.4; 3: 123.3; 4: 158.8; 5: 106.1; 6: 84.74

Dear colleague, could you send me residual activity for each of the items below? Thanks.
1. CC(C)CCC[C@@H](C)[C@H]1CC[C@H]2[C@@H]3C(=O)C=C4C[C@@H](O)CC[C@]4(C)[C@H]3CC[C@]12C [7-OXOCHOLESTEROL]
2. CC(=O)N1CCCC1C(=O)O (centres undefined) [N-ACETYLPROLINE]

Given back:
1: 96.87; 2: 88.69
